System: VSV-eGFP-SARS-CoV-2
Experiment: microbe, parasite or virus in culture
Assay type: cell-based
Conditions: Severe acute respiratory syndrome coronavirus 2, SiHa, read-out: inhibition of VSV-eGFP-SARS-CoV-2 infection, 1 μM
Where a name gives a salt, the structure may show the parent alone. Numbered stars: 1 amine (or outer) side, 2 acyl side, 3 side chain; on linkers, the order of the positions; unused ones are H or OH. Bridge positions count the residues as written; N and C are the ends. Square brackets hold non-standard residues; d marks the D form. Peptide text beside a SMILES is read from it. I, II: the chains in the order shown. Actinocin(9to1) = Cc1c2oc3c(C)ccc(C(=O)[*:1])c3nc-2c(C(=O)[*:2])c(N)c1=O; NMeV = CN[C@H](C(=O)O)C(C)C; Sar = CNCC(=O)O
Reported inhibition at 1 µM values are given for each entry in this list.
Express your answer in %, writing the number without its unit.

Worked examples follow.
INSERT INTO measurements (compound, quantitative_readout) VALUES
  ('CSC[S@+]([O-])C[C@H](CO)NC(=O)/C=C/c1c(C)[nH]c(=O)[nH]c1=O', -2),
  ('CC(=O)O[C@H]1C[C@H](O[C@H]2[C@@H](O)C[C@H](O[C@H]3[C@@H](O)C[C@H](OC4CC[C@@]5(C)[C@H](CC[C@@H]6[C@@H]5CC[C@]5(C)[C@@H](C7=CC(=O)OC7)CC[C@]65O)C4)O[C@@H]3C)O[C@@H]2C)O[C@H](C)[C@H]1O[C@@H]1O[C@H](CO)[C@@H](O)[C@H](O)[C@H]1O (stereo partly drawn) [Lanatoside A]', 81),
  ('CCCCCC1=C/C(=C/c2[nH]c(-c3ccc[nH]3)cc2OC)N=C1C', 86),
  ('C[C@H](N)C(=O)N[C@@H]1[C@H]2C(=C(O)C[C@@H](O)[C@@H]2O)C(=O)O[C@]1(C)C(Cl)Cl', 56),
  ('C[C@H]1CCC/C=C/[C@@H]2C[C@H](O)C[C@H]2[C@H](O)/C=C/C(=O)O1', 66),
  ('Cc1c2oc3c(C)ccc(C(=O)N[C@@H]4C(=O)N[C@H](C(C)C)C(=O)N5CCC[C@H]5C(=O)N(C)CC(=O)N(C)[C@@H](C(C)C)C(=O)O[C@@H]4C)c3nc-2c(C(=O)N[C@@H]2C(=O)N[C@H](C(C)C)C(=O)N3CCC[C@H]3C(=O)N(C)CC(=O)N(C)[C@@H](C(C)C)C(=O)O[C@@H]2C)c(N)c1=O [Dactinomycin, reference compound] (I: T[dV]P[Sar][NMeV] / II: T[dV]P[Sar][NMeV]; ester I:1-I:C, II:1-II:C; linker I:N-II:N via Actinocin(9to1))', 39),
  ('COc1cccc2c1C(=O)c1c(O)c3c(c(O)c1C2=O)C[C@@](O)(C(C)=O)C[C@@H]3O[C@H]1C[C@H](N)[C@H](O)[C@H](C)O1 [Daunorubicin hydrochloride, reference compound]', -16),
  ('CC(=O)O[C@H]1C[C@H](O[C@H]2[C@@H](O)C[C@H](O[C@H]3[C@@H](O)C[C@H](O[C@H]4CC[C@@]5(C)[C@H](CC[C@@H]6[C@@H]5C[C@@H](O)[C@]5(C)[C@@H](C7=CC(=O)OC7)CC[C@]65O)C4)O[C@@H]3C)O[C@@H]2C)O[C@H](C)[C@H]1O[C@@H]1O[C@H](CO)[C@@H](O)[C@H](O)[C@H]1O', 49);

Would you mind telling me what inhibition at 1 µM value was observed for COc1ccc(/C=C/C(=O)c2ccccc2)cc1 [4-Methoxychalcone, reference compound] ?
-11

###

Tested on: VSV-eGFP-SARS-CoV-2
Assay: microbe, parasite or virus in culture
Type: cell-based
Details: Severe acute respiratory syndrome coronavirus 2, SiHa, read-out: inhibition of VSV-eGFP-SARS-CoV-2 infection, 10 μM
Numbered stars: 1 amine (or outer) side, 2 acyl side, 3 side chain; on linkers, the order of the positions; unused ones are H or OH. Bridge positions count the residues as written; N and C are the ends. Square brackets hold non-standard residues; d marks the D form. Peptide text beside a SMILES is read from it. I, II: the chains in the order shown. Actinocin(9to1) = Cc1c2oc3c(C)ccc(C(=O)[*:1])c3nc-2c(C(=O)[*:2])c(N)c1=O; NMeV = CN[C@H](C(=O)O)C(C)C; Sar = CNCC(=O)O
This section presents compounds with their documented inhibition at 10 µM values.
Dear colleague, please return just the value in %, with no unit written.

INSERT INTO results (compound, quantitative_readout) VALUES
  ('Cc1c2oc3c(C)ccc(C(=O)N[C@@H]4C(=O)N[C@H](C(C)C)C(=O)N5CCC[C@H]5C(=O)N(C)CC(=O)N(C)[C@@H](C(C)C)C(=O)O[C@@H]4C)c3nc-2c(C(=O)N[C@@H]2C(=O)N[C@H](C(C)C)C(=O)N3CCC[C@H]3C(=O)N(C)CC(=O)N(C)[C@@H](C(C)C)C(=O)O[C@@H]2C)c(N)c1=O [Dactinomycin, reference compound] (I: T[dV]P[Sar][NMeV] / II: T[dV]P[Sar][NMeV]; ester I:1-I:C, II:1-II:C; linker I:N-II:N via Actinocin(9to1))', 58),
  ('CC[C@H](C)[C@H]1NC(=O)[C@@H](NC(=O)[C@@H](CC(C)C)N(C)C(=O)[C@@H]2CCCN2C(=O)C(C)O)[C@@H](C)OC(=O)[C@H](Cc2ccc(OC)cc2)N(C)C(=O)[C@@H]2CCCN2C(=O)[C@H](CC(C)C)NC(=O)[C@@H](C)C(=O)[C@H](C(C)C)OC(=O)C[C@@H]1O (some centres unmarked)', 100),
  ('CCCCCC1=C/C(=C/c2[nH]c(-c3ccc[nH]3)cc2OC)N=C1C', 100),
  ('C[C@H](N)C(=O)N[C@@H]1[C@H]2C(=C(O)C[C@@H](O)[C@@H]2O)C(=O)O[C@]1(C)C(Cl)Cl', 100);

From here, focus on the item given below.
Which inhibition at 10 µM is reported for this compound? CC(=O)O[C@H]1C[C@H](O[C@H]2[C@@H](O)C[C@H](O[C@H]3[C@@H](O)C[C@H](OC4CC[C@@]5(C)[C@H](CC[C@@H]6[C@@H]5CC[C@]5(C)[C@@H](C7=CC(=O)OC7)CC[C@]65O)C4)O[C@@H]3C)O[C@@H]2C)O[C@H](C)[C@H]1O[C@@H]1O[C@H](CO)[C@@H](O)[C@H](O)[C@H]1O (some centres unmarked) [Lanatoside A]
98

###

System: ACE2-Spike dependent syncytia formation
Type: cell-based, human
Settings: IC50 concentration; control 7 hpi
READOUT: initiation of pseudoviral infection (hpi)
Write the value in hpi as a bare number.

INSERT INTO results (molecule, quantitative_readout) VALUES
  ('CC(=O)O[C@@]1(C)C[C@@H]([C@H](O)CC2CC(=O)NC(=O)C2)C(=O)[C@@H](C)C1 [Acetoxycycloheximide]', 10),
  ('C[C@@H]1O[C@@H](O[C@@H]2C=C3CC[C@@H]4[C@H](CC[C@]5(C)[C@@H](c6ccc(=O)oc6)CC[C@]45O)[C@@]3(C)CC2)[C@H](O)[C@H](O)[C@H]1O[C@@H]1O[C@H](CO)[C@@H](O)[C@H](O)[C@H]1O [Scillaren A]', 8),
  ('CC[C@H](C)[C@H]1NC(=O)[C@@H](NC(=O)[C@@H](CC(C)C)N(C)C(=O)[C@@H]2CCCN2C(=O)C(C)O)[C@@H](C)OC(=O)[C@H](Cc2ccc(OC)cc2)N(C)C(=O)[C@@H]2CCCN2C(=O)[C@H](CC(C)C)NC(=O)[C@@H](C)C(=O)[C@H](C(C)C)OC(=O)C[C@@H]1O (stereo partly drawn) [Didemnin B]', 8),
  ('CO[C@H]1/C=C\C=C(/C)C(=O)NC2=CC(=O)C(N)=C(C[C@@H](C)C[C@H](OC)[C@H](O)[C@@H](C)/C=C(\C)[C@@H]1OC(N)=O)C2=O [17-Aminodemethoxygeldanamycin]', 8),
  ('C[C@@H]1O[C@@H](O[C@@H]2C=C3CC[C@@H]4[C@H](CC[C@]5(C)[C@@H](c6ccc(=O)oc6)CC[C@]45O)[C@@]3(C)CC2)[C@H](O)[C@H](O)[C@H]1O [Proscillaridin, reference compound]', 8);

Suppose we examine the molecule COC1=C(N)C(=O)c2nc(-c3nc(C(=O)O)c(C)c(-c4ccc(OC)c(OC)c4O)c3N)ccc2C1=O [Streptonigrin] ; what initiation of pseudoviral infection value has been reported?
8

###

Tested on: VSV-eGFP-SARS-CoV-2
Assay: microbe, parasite or virus in culture
Type: cell-based
Settings: Severe acute respiratory syndrome coronavirus 2, SiHa, read-out: inhibition of VSV-eGFP-SARS-CoV-2 infection, 1 μM
Structures can show the parent of a compound that is named as a salt.
READOUT: inhibition at 1 µM (%)
Provide only the numeric value, understood in %.

Below: 2 molecules and their reported inhibition at 1 µM.
INSERT INTO measurements (molecule, quantitative_readout) VALUES
  ('CC1=C2C(=CC(C)(C)[C@@H]2O)C(=O)[C@](C)(O)C12CC2', 31),
  ('CC[C@](C)(O)C(=O)O[C@H]1C(=O)O[C@@H]2C[C@H]3C(C)=C[C@H](O)[C@@H](O)[C@]3(C)[C@H]3[C@]4(O)OC[C@]32[C@@H]1[C@@H](C)[C@H]4O', -7);

Moving on to another molecule below.
Any idea what inhibition at 1 µM was measured for CC[C@]1(O)C[C@H]2CN(CCc3c([nH]c4ccccc34)[C@@](C(=O)OC)(c3cc4c(cc3OC)N(C=O)[C@H]3[C@@](O)(C(=O)OC)[C@H](OC(C)=O)[C@]5(CC)C=CCN6CC[C@]43[C@@H]65)C2)C1 [Vincristine sulfate, reference compound] ?
32
